Known growth of a selection of compounds
# Tested on: UACC-257 melanoma
# RUN DESCRIPTION: NCI-60 one-dose screen, 48 h (100 = growth as untreated, 0 = no growth, -100 = all killed)
# RUN PARAMETERS: 10 µM
About 83,000 compounds went through this panel and 20% of them were active in at least one assay; those are over-represented in the sample as a whole.
Number in %, nothing else.

[
  {
    "COMPOUND": "COc1ccc2nc3cc(Cl)ccc3c(NCCCNCCO)c2c1",
    "SUBJECT OF TEST": "UACC-257 melanoma",
    "growth (%)": -75.4
  },
  {
    "COMPOUND": "O=C1C=C(Nc2cccc(Br)c2)c2ccccc2C1=O",
    "SUBJECT OF TEST": "UACC-257 melanoma",
    "growth (%)": 79.4
  },
  {
    "COMPOUND": "CC1CCCC(C(=O)O)C1C(=O)O (stereo not given)",
    "SUBJECT OF TEST": "UACC-257 melanoma",
    "growth (%)": 80.8
  },
  {
    "COMPOUND": "O=C1CCn2c1c(O)c1ccccc1c2=O",
    "SUBJECT OF TEST": "UACC-257 melanoma",
    "growth (%)": 99.8
  },
  {
    "COMPOUND": "COc1cc(C)ccc1Oc1nc(Nc2ccc(N3CCOCC3)cc2)ncc1NC(=O)Nc1cc(C(F)(F)F)cc(C(F)(F)F)c1",
    "SUBJECT OF TEST": "UACC-257 melanoma",
    "growth (%)": 84.3
  },
  {
    "COMPOUND": "Cc1c2cnccc2c(C)c2c1oc1ccccc12",
    "SUBJECT OF TEST": "UACC-257 melanoma",
    "growth (%)": 86.8
  },
  {
    "COMPOUND": "c1ccc2c(c1)Cc1ccccc1N2CCN1CCCCC1",
    "SUBJECT OF TEST": "UACC-257 melanoma",
    "growth (%)": 102
  },
  {
    "COMPOUND": "O=S(=O)(Oc1ccc(-c2ccc3sccc3c2)cc1)c1ccc(F)cc1",
    "SUBJECT OF TEST": "UACC-257 melanoma",
    "growth (%)": 106
  }
]

Task: // lookup growth | system=UACC-257 melanoma | key= COC(=O)c1cc2oc(/C=C3/SC(=S)N(N)C3=O)cc2n1Cc1ccccc1
Result: 49.6

Task: Param readout = growth; param system = UACC-257 melanoma; param query = Cc1ccc(C(SCC(N)C(=O)O)(c2ccc(C)cc2)c2ccc(C)cc2)cc1 (stereo not given) ; response: value
Result: -18.5

Task: Could you share what growth was measured for c1ccc(CCCCc2ccc3ccccc3n2)cc1 , tested on UACC-257 melanoma?
Result: 103

Task: What value of growth on UACC-257 melanoma does CCCN(CCC)C(=O)[C@H](CC)[C@@H]1CC[C@@H](C)[C@@H]([C@H](C)[C@@H](O)[C@@H](C)C(=O)[C@H](CC)C2O[C@]3(C=C[C@@H](O)[C@]4(CC[C@@](C)([C@H]5CC[C@](O)(CC)[C@H](C)O5)O4)O3)[C@H](C)C[C@@H]2C)O1 (stereo not given in full) have?
Result: 8.4

Task: Identify the measured growth of CC(C)(C)OC(=O)N1CCc2c(sc3ncnc(N/N=C/c4cccc(Br)c4)c23)C1 for UACC-257 melanoma.
Result: 80.8

Task: Tell me reported growth for CC(=O)C1N=NCC1c1ccccc1 (stereo not given) , tested with UACC-257 melanoma.
Result: 110

Task: What value of growth on UACC-257 melanoma does CS(=O)(=O)c1nccc(-c2c(-c3cccc(OCc4ccc(F)cc4)c3)nc3sccn23)n1 have?
Result: 17

----------
# Test system: HT29 colon
# RUN DESCRIPTION: NCI-60 one-dose screen, 48 h
# RUN PARAMETERS: 10 µM
This is part of a sample that, as a whole, favours compounds with a hit. Of some 83,000 tested, about 20% had one in any assay. Active and inactive are the calls of the source. The calls were made as follows: active = growth percent below 10; inactive = the rest.
Parameter call: string, one of TRUE (active), FALSE (inactive)

Take a look at these entries with their results.
[
  {
    "MOLECULE": "O=C(Nc1ccccc1)Nc1ncnc2c1ncn2-c1ccccc1",
    "CATEGORY": "FALSE"
  },
  {
    "MOLECULE": "Nc1nc(Cn2c(-c3nonc3N)nc3ccccc32)nc(N2CCCCC2)n1",
    "CATEGORY": "FALSE"
  },
  {
    "MOLECULE": "COc1ccc(-c2nn(-c3cccc(Cl)c3)cc2-c2nc(N)[nH]c(=O)c2C#N)cc1",
    "CATEGORY": "FALSE"
  },
  {
    "MOLECULE": "CC(C)c1cc(N=O)cc(C(C)C)c1O",
    "CATEGORY": "FALSE"
  },
  {
    "MOLECULE": "COc1ccc(-c2csc(NC(=O)c3ccc(Cc4n[nH]c(=O)c5cccnc45)cc3)n2)cc1",
    "CATEGORY": "FALSE"
  }
]

Task: Could you check what this test reported for COc1ccc(C(=O)c2cc3c(OC)c(OC)c(OC)cc3[nH]2)cc1 ?
Result: FALSE

Task: What classification did COc1cc(/C=C2\CCCC3=C2NC(N)=NC3c2cc(OC)c(OC)c(OC)c2)cc(OC)c1OC (centres undefined) end up with in this test?
Result: TRUE

Task: Hello, I am checking results. What call was entered for C1CN(CC2CCC(CN3CCOCC3)O2)CCO1 (centres undefined) ?
Result: FALSE

Task: # fetch the recorded call for COc1ccc(-c2cc(-c3ccc(Cl)cc3)nc(SCCCC(=O)NO)n2)cc1 here
Result: FALSE

----------
# System: MALME-3M melanoma
# RUN DESCRIPTION: NCI-60 one-dose screen, 48 h (100 = growth as untreated, 0 = no growth, -100 = all killed)
# RUN PARAMETERS: 10 µM
About 83,000 compounds went through this panel and 20% of them were active in at least one assay; those are over-represented in the sample as a whole.
QUANTITY KIND: growth (%)
# unit: % | format: bare number

Solved entries:
[
  {
    "COMPOUND": "CCN(CCCNc1cc2c(c(N)c1S(=O)(=O)O)C(=O)c1ccccc1C2=O)c1ccccc1",
    "QUANTITY KIND": "growth",
    "MEASURED": 97
  },
  {
    "COMPOUND": "OCC1OC(n2ccc3c(NO)ncnc32)C(O)C1O (configuration not stated)",
    "QUANTITY KIND": "growth",
    "MEASURED": -69.2
  },
  {
    "COMPOUND": "CCc1ccc(C2=NN(c3ccc(S(C)(=O)=O)cc3)C(=O)CC2)cc1",
    "QUANTITY KIND": "growth",
    "MEASURED": 38.8
  },
  {
    "COMPOUND": "O=C1/C(=C/c2ccc([N+](=O)[O-])s2)Oc2cc(Cl)ccc21",
    "QUANTITY KIND": "growth",
    "MEASURED": -49.5
  }
]

Task: Enter reported growth observed with MALME-3M melanoma for Nc1nc(-c2ccc(Cl)cc2)cc(-c2cc3ccccc3oc2=O)n1
Result: 80

Task: What value of growth on MALME-3M melanoma does CC(=O)N[C@H](C(=O)N[C@@H](CCCNC(=N)N)C(=O)N[C@@H](CCCCN)C(=O)N[C@@H](CCCNC(=N)N)C(=O)N[C@]1(C)CCC/C=C\CCC[C@@](C)(C(=O)N[C@@H](CC(C)C)C(=O)N[C@@H](CC(C)C)C(=O)N[C@@H](CCC(N)=O)C(=O)N[C@@H](CCC(=O)O)C(=O)N[C@@H](CCCNC(=N)N)C(=O)N[C@@H](CCC(=O)O)C(=O)N[C@@H](CC(C)C)C(=O)N[C@H](C(=O)N[C@@H](CCC(=O)O)C(N)=O)C(C)C)NC(=O)[C@H](CCCNC(=N)N)NC(=O)[C@H](CC(C)C)NC1=O)C(C)C have?
Result: 137

Task: Item COc1cc(-c2nn(-c3cccc(NC(=O)CCN4CCN(c5ccccc5)CC4)c3)cc2-c2ccncc2)ccc1Cl with MALME-3M melanoma - growth?
Result: 38

----------
Listing of recorded growth by entry.
# Tested on: SR leukemia
# RUN DESCRIPTION: NCI-60 one-dose screen, 48 h (100 = growth as untreated, 0 = no growth, -100 = all killed)
# RUN PARAMETERS: 10 µM
This is part of a sample that, as a whole, favours compounds with a hit. Of some 83,000 tested, about 20% had one in any assay.
Value expressed in %; do not type the unit.

[
  {
    "COMPOUND": "CCOC(=O)c1sc2ncnc(Nc3ccc(NC(=O)Nc4ccc(Cl)cc4)cc3)c2c1C",
    "SUBJECT OF TEST": "SR leukemia",
    "QUANTITY KIND": "growth",
    "MEASURED": 44.3
  },
  {
    "COMPOUND": "Nc1ccc(/C=N/Nc2ccnc3c(O)cccc23)c2cccnc12",
    "SUBJECT OF TEST": "SR leukemia",
    "QUANTITY KIND": "growth",
    "MEASURED": 2.19
  },
  {
    "COMPOUND": "CC[C@@H](C(=O)[C@H](C)[C@H](O)[C@@H](C)[C@H]1O[C@H]([C@@H](CC)C(=O)O)CC[C@H]1C)C1O[C@]2(C=C[C@@H](O)[C@]3(CC[C@@](C)([C@H]4CC[C@](O)(CC)[C@H](C)O4)O3)O2)[C@H](C)C[C@@H]1C (stereo partly specified)",
    "SUBJECT OF TEST": "SR leukemia",
    "QUANTITY KIND": "growth",
    "MEASURED": 22.5
  },
  {
    "COMPOUND": "O=C1/C(=C/c2ccc([N+](=O)[O-])s2)Oc2cc(Cl)ccc21",
    "SUBJECT OF TEST": "SR leukemia",
    "QUANTITY KIND": "growth",
    "MEASURED": 8.31
  }
]

Task: For COc1cccc(CNc2cccc3cn[nH]c23)c1O , what is its reported growth?
Result: 103

Task: Which value of growth has been reported for C/C=C/C1=CN2C(=O)c3cc(OC4OC(C)C(NC)C(C)(O)C4O)c(C)c(O)c3N=C[C@@H]2C1 (stereo partly specified) in the records?
Result: 0.588

Task: For the compound shown here, Fc1ccc2[nH]cc(-c3nc(-c4ccsc4)cs3)c2c1 , give the reported growth.
Result: 86.2

Task: Param item = COc1ccc(Cl)cc1Nc1nc(C(F)(F)F)ccc1C(=O)N/N=C/c1cc(OC)c(OC)c(OC)c1 ; retrieve measured growth.
Result: 14.1
